Origin of measurements: patent US20130324707A1

Reported Tm is given for each of the following compounds.
Test system: human β2 adrenergic receptor-T4-lyosome fusion protein (β2AR-T4L)
procedure-details: Thermal stabilization (Tm) of β2AR-T4L in amphiphile, normalized peak ratio 341 nm/356 nm
Design: unit: °C
recorded-conditions: 10 × CMC; β2AR-T4L; scan from 25° C. to 85° C.
Marks after values point to notes of the source that are not given here.

compound	assay-result
CCCCCCCCCCC(=O)NCCOC1OC(CO)C(OC2OC(CO)C(O)C(O)C2O)C(O)C1O (stereo not shown) [MPA-6]	51.4 (n = 3)*
CCCCCCCCCCOCCOC1OC(CO)C(OC2OC(CO)C(O)C(O)C2O)C(O)C1O (stereo not shown) [MPA-11]	58.8 (n = 3)*
CCCCCCCCCCC(=O)NCC(CNC(=O)CCCCCCCCCC)(CO[C@H]1OC(CO)[C@H](O[C@@H]2OC(CO)[C@H](O)C(O)[C@H]2O)C(O)[C@H]1O)CO[C@H]1OC(CO)[C@H](O[C@@H]2OC(CO)[C@H](O)C(O)[C@H]2O)C(O)[C@H]1O (stereo partly shown) [MNG-1]	65.1 (n = 3)*

In the following, a different compound is considered.
Input: Kindly indicate its recorded Tm. Item: CCCCCCCCCCOCC(COCCCCCCCCCC)(CO[C@H]1OC(CO)[C@H](O[C@@H]2OC(CO)[C@H](O)C(O)[C@H]2O)C(O)[C@H]1O)CO[C@H]1OC(CO)[C@H](O[C@@H]2OC(CO)[C@H](O)C(O)[C@H]2O)C(O)[C@H]1O (stereo partly shown) [MNG-6]
Output: 64.6 (n = 3)

====

Test system: human β2 adrenergic receptor-T4-lyosome fusion protein (β2AR-T4L)
procedure-details: Thermal stabilization (Tm) of β2AR-T4L in amphiphile, normalized peak ratio 341 nm/356 nm
Design: unit: °C
recorded-conditions: 10 × CMC; β2AR-T4L; scan from 25° C. to 85° C.
Marks after values point to notes of the source that are not given here.
Attribute: Tm

compound	system-name	Tm
CCCCCCCCCCC(CCCCCCCCCC)(COC1OC(CO)C(OC2OC(CO)C(O)C(O)C2O)C(O)C1O)COC1OC(CO)C(OC2OC(CO)C(O)C(O)C2O)C(O)C1O (stereo not drawn) [MNG-14]	human β2 adrenergic receptor-T4-lyosome fusion protein (β2AR-T4L)	67.4 (n = 3)
CCCCCCCCCCCCO[C@@H]1O[C@H](CO)[C@@H](O[C@H]2O[C@H](CO)[C@@H](O)[C@H](O)[C@H]2O)[C@H](O)[C@H]1O [DDM, dodecylmaltoside, reference compound]	human β2 adrenergic receptor-T4-lyosome fusion protein (β2AR-T4L)	63.5 (n = 4)*

For the next question, use this compound.
Input: Fill in Tm for record CCCCCCCCCCCC(CCCCCCCCCCC)(CO[C@H]1OC(CO)[C@H](O[C@@H]2OC(CO)[C@H](O)C(O)[C@H]2O)C(O)[C@H]1O)CO[C@H]1OC(CO)[C@H](O[C@@H]2OC(CO)[C@H](O)C(O)[C@H]2O)C(O)[C@H]1O (stereo partly drawn) [MNG-4]
Output: 64.1 (n = 3)

====

procedure-details: Critical micelle concentration (CMC) by fluorescent dye uptake
Format: physicochemical
measured-metric: CMC (%)

Some entries whose results are on file:
compound	measured-metric	assay-result
CCCCCOCC(COCCCCC)(COC1OC(CO)C(O)C(O)C1O)COC1OC(CO)C(O)C(O)C1O (stereo not drawn)	CMC (%)	0.647%
O=C(NCC(CNC(=O)C1CCCC1)(COC1OC(CO)C(O)C(O)C1O)COC1OC(CO)C(O)C(O)C1O)C1CCCC1 (stereo not drawn)	CMC (%)	4.7%
CCCCCCCCCOCC(COCCCCCCCCC)(COC1OC(CO)C(OC2OC(CO)C(O)C(O)C2O)C(O)C1O)COC1OC(CO)C(OC2OC(CO)C(O)C(O)C2O)C(O)C1O (stereo not drawn)	CMC (%)	0.0018%
O=C(Cc1cc(C(F)(F)F)cc(C(F)(F)F)c1)NCC(CNC(=O)Cc1cc(C(F)(F)F)cc(C(F)(F)F)c1)(COC1OC(CO)C(OC2OC(CO)C(O)C(O)C2O)C(O)C1O)COC1OC(CO)C(OC2OC(CO)C(O)C(O)C2O)C(O)C1O (stereo not drawn)	CMC (%)	0.1162%
CCCCCCC(CCCCCC)(COC1OC(CO)C(O)C(O)C1O)COC1OC(CO)C(O)C(O)C1O (stereo not drawn)	CMC (%)	0.058%

Input: Assign CMC (%) to the following record: CCCCCCCCCC(CCCCCCCCC)(COC1OC(CO)C(OC2OC(CO)C(O)C(O)C2O)C(O)C1O)COC1OC(CO)C(OC2OC(CO)C(O)C(O)C2O)C(O)C1O (stereo not drawn)
Output: 0.0018%

====

Recorded CMC values for a group of compounds are listed next.
procedure-details: Critical micelle concentration (CMC) by fluorescent dye uptake
Format: physicochemical
Quick note: give the figure in mM, leave out the unit.

compound	measured-metric	units-label	assay-result
CCCCCOCC(COCCCCC)(COC1OC(CO)C(O)C(O)C1O)COC1OC(CO)C(O)C(O)C1O (stereo not drawn)	CMC	mM	13.4
OCC1OC(OCC(COC2CCCCC2)(COC2CCCCC2)COC2OC(CO)C(O)C(O)C2O)C(O)C(O)C1O (stereo not drawn)	CMC	mM	17
CCCCCCCCCCCCCC(=O)NCC(CNC(=O)CCCCCCC)(COC1OC(CO)C(OC2OC(CO)C(O)C(O)C2O)C(O)C1O)COC1OC(CO)C(OC2OC(CO)C(O)C(O)C2O)C(O)C1O (stereo not drawn)	CMC	mM	0.02
CCCCCCCCCCC(=O)NCC(CNC(=O)CCCCCCCCCC)(CO[C@H]1OC(CO)[C@H](O[C@@H]2OC(CO)[C@H](O)C(O)[C@H]2O)C(O)[C@H]1O)CO[C@H]1OC(CO)[C@H](O[C@@H]2OC(CO)[C@H](O)C(O)[C@H]2O)C(O)[C@H]1O (stereo partly drawn)	CMC	mM	0.017
CCCCCCCOCC(COCCCCCCC)(COC1OC(CO)C(O)C(O)C1O)COC1OC(CO)C(O)C(O)C1O (stereo not drawn)	CMC	mM	0.1

Could you now look at the following compound, please?
Input: Report CMC, nothing else, for this compound: CCCCCC(CCCCC)(COC1OC(CO)C(O)C(O)C1O)COC1OC(CO)C(O)C(O)C1O (stereo not drawn)
Output: 9.64

====

In this section, each of the compounds is paired with its reported CMC (%).
procedure-details: Critical micelle concentration (CMC) by fluorescent dye uptake
Format: physicochemical
Answer in %, number only, no unit symbol.

compound	measured-metric	units-label	assay-result
CCCCCCOCC(COCCCCCC)(COC1OC(CO)C(O)C(O)C1O)COC1OC(CO)C(O)C(O)C1O (stereo not drawn)	CMC (%)	%	0.08
CCCCCCCCCC(=O)NCC(CNC(=O)CCCCCCCCC)(COC1OC(CO)C(OC2OC(CO)C(O)C(O)C2O)C(O)C1O)COC1OC(CO)C(OC2OC(CO)C(O)C(O)C2O)C(O)C1O (stereo not drawn)	CMC (%)	%	0.0047
OCC1OC(OCC(COC2OC(CO)C(O)C(O)C2O)(CSC2CCCCC2)CSC2CCCCC2)C(O)C(O)C1O (stereo not drawn)	CMC (%)	%	0.13
CCCCCCCCOCC(COCCCCCCCC)(COC1OC(CO)C(OC2OC(CO)C(O)C(O)C2O)C(O)C1O)COC1OC(CO)C(OC2OC(CO)C(O)C(O)C2O)C(O)C1O (stereo not drawn)	CMC (%)	%	0.0034
CCCCCCCCCCCCCC(=O)NCC(CNC(=O)CCCCCCC)(COC1OC(CO)C(OC2OC(CO)C(O)C(O)C2O)C(O)C1O)COC1OC(CO)C(OC2OC(CO)C(O)C(O)C2O)C(O)C1O (stereo not drawn)	CMC (%)	%	0.0022

Please examine the following record next.
Input: Tell me measured CMC (%) for CCCCCC(CCCCC)(COC1OC(CO)C(O)C(O)C1O)COC1OC(CO)C(O)C(O)C1O (stereo not drawn) please.
Output: 0.373

====

Quick list: Tm per entry.
System: human β2 adrenergic receptor-T4-lyosome fusion protein (β2AR-T4L)
procedure-details: Thermal stabilization (Tm) of β2AR-T4L in amphiphile, normalized peak ratio 341 nm/356 nm
Design: unit: °C
recorded-conditions: 50 × CMC; β2AR-T4L
Marks after values point to notes of the source that are not given here.

For orientation, consider the following solved cases.
compound	assay-result
CCCCCCCCCCOCCOC1OC(CO)C(OC2OC(CO)C(O)C(O)C2O)C(O)C1O (stereo not drawn) [MPA-11]	58.3 (n = 3)
CCCCCCCCCCCC(CCCCCCCCCCC)(CO[C@H]1OC(CO)[C@H](O[C@@H]2OC(CO)[C@H](O)C(O)[C@H]2O)C(O)[C@H]1O)CO[C@H]1OC(CO)[C@H](O[C@@H]2OC(CO)[C@H](O)C(O)[C@H]2O)C(O)[C@H]1O (stereo partly drawn) [MNG-4]	67.3 (n = 3)*
CCCCCCCCCCC(CCCCCCCCCC)(COC1OC(CO)C(OC2OC(CO)C(O)C(O)C2O)C(O)C1O)COC1OC(CO)C(OC2OC(CO)C(O)C(O)C2O)C(O)C1O (stereo not drawn) [MNG-14]	68.4 (n = 3)*
CCCCCCCCCCC(=O)NCC(CNC(=O)CCCCCCCCCC)(CO[C@H]1OC(CO)[C@H](O[C@@H]2OC(CO)[C@H](O)C(O)[C@H]2O)C(O)[C@H]1O)CO[C@H]1OC(CO)[C@H](O[C@@H]2OC(CO)[C@H](O)C(O)[C@H]2O)C(O)[C@H]1O (stereo partly drawn) [MNG-1]	65.1 (n = 3)*
CCCCCCCCCCOCC(COCCCCCCCCCC)(CO[C@H]1OC(CO)[C@H](O[C@@H]2OC(CO)[C@H](O)C(O)[C@H]2O)C(O)[C@H]1O)CO[C@H]1OC(CO)[C@H](O[C@@H]2OC(CO)[C@H](O)C(O)[C@H]2O)C(O)[C@H]1O (stereo partly drawn) [MNG-6]	67.1 (n = 3)*

Now consider a different compound.
Input: Specify the recorded Tm for CCCCCCCCCCCCO[C@@H]1O[C@H](CO)[C@@H](O[C@H]2O[C@H](CO)[C@@H](O)[C@H](O)[C@H]2O)[C@H](O)[C@H]1O [DDM, dodecylmaltoside, reference compound] , system: human β2 adrenergic receptor-T4-lyosome fusion protein (β2AR-T4L).
Output: 63.0 (n = 4)
